Assay: Ocular tissue and plasma pharmacokinetics, 15 mg/kg single and BID oral, Dutch Belted rabbits (Example 3/5)
Type: in vivo
Conditions: Dutch Belted, rabbit, choroid-RPE, oral, 15 mg/kg, DB rabbits, Day 15, 15 mg/kg BID, 6 hr; read-out: Mean Choroid-RPE Concentration
observable: concentration at 6 h (ng/g)
Numeric answer only, unit ng/g assumed.

get_value(item= CC(=O)c1nn(CC(=O)N2C[C@H](F)C[C@H]2C(=O)Nc2cccc(Br)n2)c2ccc(-c3cnc(C)nc3)cc12 , readout=concentration at 6 h) returns 3200

----------
Test: Ocular tissue and plasma pharmacokinetics, 50 mg/kg BID oral, Dutch Belted rabbits (Example 4/5)
Format: in vivo
Settings: male, Dutch Belted, po; Plasma, DB rabbit, 50 mg/kg BID, Day 15; read-out: AUC0-t
observable: AUC(0-t)
A complete answer gives the number followed by the unit.

Summary for this molecule, CC(=O)c1nn(CC(=O)N2C[C@H](F)C[C@H]2C(=O)Nc2cccc(Br)n2)c2ccc(-c3cnc(C)nc3)cc12 : AUC(0-t) is 9790 ng·h/mL

----------
Experiment: Ocular tissue distribution and pharmacokinetics, 7.5 and 15 mg/kg oral, pigmented Dutch Belted rabbits (Example 7)
Assay type: in vivo
Conditions: male, Dutch Belted, rabbit, plasma, po, […], plasma, male DB rabbits, Group 2, Day 15, […] BID oral (15 mg/kg/day); read-out: AUC0-24
observable: AUC(0-t) (ng·h/mL)
// return numeric value only (unit: ng·h/mL, not printed)

Kindly note the recorded AUC(0-t) for CC(=O)c1nn(CC(=O)N2C[C@H](F)C[C@H]2C(=O)Nc2cccc(Br)n2)c2ccc(-c3cnc(C)nc3)cc12 , which is 2130

----------
Assay: Ocular tissue and plasma pharmacokinetics, 50 mg/kg BID oral, Dutch Belted rabbits (Example 4/5)
Assay type: in vivo
Conditions: male, Dutch Belted, rabbit, optic nerve, po, 50 mg/kg, DB rabbit, 50 mg/kg BID oral, Day 15, 24 h; read-out: Optic Nerve concentration
observable: concentration at 24 h (ng/g)
Could you give me the number in ng/g? Just the number is fine.

Short answer for CC(=O)c1nn(CC(=O)N2C[C@H](F)C[C@H]2C(=O)Nc2cccc(Br)n2)c2ccc(-c3cnc(C)nc3)cc12 : concentration at 24 h was 27

----------
Test: Ocular tissue and plasma pharmacokinetics, 15 mg/kg single and BID oral, Dutch Belted rabbits (Example 3/5)
Format: in vivo
Conditions: Dutch Belted, rabbit, plasma, po, 15 mg/kg, DB rabbit, 15 mg/kg BID oral, Day 15, 1 h; read-out: Mean plasma concentration
observable: concentration at 1 h (ng/mL)
// note: answer is a bare numeric in ng/mL

The compound listed as CC(=O)c1nn(CC(=O)N2C[C@H](F)C[C@H]2C(=O)Nc2cccc(Br)n2)c2ccc(-c3cnc(C)nc3)cc12 [Compound 1] shows concentration at 1 h equal to 845

----------
Assay: Ocular tissue and plasma pharmacokinetics, 15 mg/kg single and BID oral, Dutch Belted rabbits (Example 3/5)
Format: in vivo
Settings: Dutch Belted, rabbit, retina, oral, 15 mg/kg, DB rabbits, Day 15, 15 mg/kg BID, 24 hr; read-out: Mean Retina Concentration
observable: concentration at 24 h (ng/g)
Quick note: give the figure in ng/g, leave out the unit.

Per the record, CC(=O)c1nn(CC(=O)N2C[C@H](F)C[C@H]2C(=O)Nc2cccc(Br)n2)c2ccc(-c3cnc(C)nc3)cc12 has concentration at 24 h of 74.3
